Subject Of Test: T1, human GIP receptor (human, UniProt P48546 22-466)
T1 construct: whole, on cells; also called hGIPR; human glucose-dependent insulinotropic polypeptide receptor
T1 sequence (looked up): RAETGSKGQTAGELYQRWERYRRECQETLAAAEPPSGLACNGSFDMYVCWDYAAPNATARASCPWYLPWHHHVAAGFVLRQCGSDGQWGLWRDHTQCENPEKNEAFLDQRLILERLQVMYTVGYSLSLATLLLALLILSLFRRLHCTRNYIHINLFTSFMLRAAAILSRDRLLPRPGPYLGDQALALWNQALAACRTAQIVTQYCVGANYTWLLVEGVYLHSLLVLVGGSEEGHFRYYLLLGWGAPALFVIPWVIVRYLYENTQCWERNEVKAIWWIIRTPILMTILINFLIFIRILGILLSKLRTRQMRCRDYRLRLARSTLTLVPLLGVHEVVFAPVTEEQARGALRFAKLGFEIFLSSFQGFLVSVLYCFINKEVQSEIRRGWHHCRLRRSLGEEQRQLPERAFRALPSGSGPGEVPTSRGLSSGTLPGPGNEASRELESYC
Method Summary: SPA competition vs [125I]-GIP, hGIPR membranes
One threshold, 0.03 nM, splits the recorded Ki values: lower ones are T, equal or higher ones are F.

These solved cases illustrate the format of a correct answer.
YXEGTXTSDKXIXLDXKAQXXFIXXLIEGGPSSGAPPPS (Aib2, αMeF(2F)6, K10(Z1), Aib11, αMeL13, Orn16, K17(Z1), Aib20, Orn21, D-Glu24, αMeY25, C-term NH2; Z1=AEEA3-(γ-Glu)-CO-(CH2)10-CH3) ... T
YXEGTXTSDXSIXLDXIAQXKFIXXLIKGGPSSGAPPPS (Aib2, αMeF(2F)6, 4Pal10, αMeL13, Orn16, Aib20, K21(Z1), D-Glu24, αMeY25, K28(Z1), C-term NH2; Z1=AEEA2-(γ-Glu)-CO-(CH2)12-CO2H) ... F
YXEGTXTSDXXIXLDXQAQXEFIKXLIKGGPSSGAPPPS (Aib2, αMeF(2F)6, 4Pal10, Aib11, αMeL13, Orn16, Aib20, K24(Z1), αMeY25, K28(Z1), C-term NH2; Z1=AEEA2-(γ-Glu)-CO-(CH2)12-CO2H) ... F
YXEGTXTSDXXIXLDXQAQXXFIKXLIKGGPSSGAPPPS (Aib2, αMeF(2F)6, 4Pal10, Aib11, αMeL13, Orn16, Aib20, Orn21, K24(Z1), αMeY25, K28(Z1), C-term NH2; Z1=AEEA2-Trx-(γ-Glu)-CO-(CH2)12-CO2H) ... F
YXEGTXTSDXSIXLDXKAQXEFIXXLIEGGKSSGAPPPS (Aib2, αMeF(2F)6, 4Pal10, αMeL13, Orn16, K17(Z1), Aib20, D-Glu24, αMeY25, K31(Z1), C-term NH2; Z1=AEEA2-(εK)-CO-(CH2)12-CO2H) ... F

Now look at this entry.
Inquiry: For this binder, is Ki lower than 0.03 nM? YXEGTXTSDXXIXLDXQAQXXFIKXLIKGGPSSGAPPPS (Aib2, αMeF(2F)6, 4Pal10, Aib11, αMeL13, Orn16, Aib20, Orn21, K24(Z1), αMeY25, K28(Z1), C-term NH2; Z1=AEEA2-(γ-Glu)-(10-(4-carboxyphenoxy)decanoyl))
Reply text: F

Hey, just so you know, these numbers are from patent US20230265151A1.
